# assay_target: T1, human IL-11 (human, UniProt P20809 22-199)
# T1 sequence: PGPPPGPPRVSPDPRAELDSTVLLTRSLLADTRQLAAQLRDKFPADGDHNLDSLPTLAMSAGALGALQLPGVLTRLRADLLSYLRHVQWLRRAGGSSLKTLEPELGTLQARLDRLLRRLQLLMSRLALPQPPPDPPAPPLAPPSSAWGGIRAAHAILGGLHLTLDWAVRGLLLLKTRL
# measurement_notes: cell-based or functional assay
measured_property: IC50, RGA 2
Could you write the number and then its unit?

Record excerpt, results attached:
[[record]]
binder = "TPP-31300 (antibody, IgG4, V domains shown) VH: EVQLLESGGGLVQPGGSLRLSCAASGFTFSHYDMNWLRQAPGKGLEWVGVISYEGSNKFYADFVKGRFTISRDNSKNTLYLQMNSLRAEDTAVYYCARTPGSHFDYWGQGTLVTVSS VL: QSVLTQPPSASGTPGQRVTISCSGSSSNIGNNAVNWYQQLPGTAPKLLIYYDDLLPSGVPDRFSGSKSGTSASLAISGLRSEDEADYYCSAWDDSLNGVVFGGGTKLTVL"
recorded_result = "4.75 nM"

[[record]]
binder = "TPP-31286 (antibody, IgG4, V domains shown) VH: QVQLLESGGGLVQPGGSLRLSCAASGFTFSHYDMNWLRQAPGKGLEWVGVISYDGSNKFYADFVKGRFTISRDNSKNTLYLQMNSLRAEDTAVYYCARTPGSHFDYWGQGTLVTVSS VL: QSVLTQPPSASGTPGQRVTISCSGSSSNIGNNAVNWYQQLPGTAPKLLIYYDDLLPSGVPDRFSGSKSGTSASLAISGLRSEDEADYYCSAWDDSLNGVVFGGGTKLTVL"
recorded_result = "37 nM"


Q: Fill in IC50, RGA 2 for record TPP-31278 (antibody, IgG4, V domains shown, hIgG4 SPLE, lambda) VH: EVQLLESGGGLVQPGGSLRLSCAASGFTFSHYDMNWLRQAPGKGLEWVGVISYDGSNKFYADFVKGRFTISRDNSKNTLYLQMNSLRAEDTAVYYCARTPGSHFDYWGQGTLVTVSS VL: QSVLTQPPSASGTPGQRVTISCSGSSSNIGNNYVNWYQQLPGTAPKLLIYYDDLLPSGVPDRFSGSKSGTSASLAISGLRSEDEADYYCSAWDDSLNGVVFGGGTKLTVL
Result: 2.36 nM
